targetOrTestSystem: p53, recombinant (UniProt P04637 1-393)
Sequence (P04637 whole entry): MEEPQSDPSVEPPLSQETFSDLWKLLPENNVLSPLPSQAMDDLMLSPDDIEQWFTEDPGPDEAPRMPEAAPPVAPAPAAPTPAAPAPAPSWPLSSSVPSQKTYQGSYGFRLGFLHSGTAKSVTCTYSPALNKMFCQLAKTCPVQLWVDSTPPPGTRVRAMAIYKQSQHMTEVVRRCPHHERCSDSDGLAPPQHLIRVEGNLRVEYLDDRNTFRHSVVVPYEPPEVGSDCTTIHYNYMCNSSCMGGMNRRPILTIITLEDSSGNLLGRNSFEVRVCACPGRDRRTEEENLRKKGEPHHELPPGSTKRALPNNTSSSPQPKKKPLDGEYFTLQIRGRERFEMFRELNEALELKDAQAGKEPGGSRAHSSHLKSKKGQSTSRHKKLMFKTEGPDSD
protocolText: BLI
assayEndpoint: pKd
Friendly reminder that pKd comes from taking -log10 of the concentration in mol/L.

Value of measured pKd for the entry recombinant HMGB1 B box (domain or fragment, Limits not given; 88-162 is the usual B box construct of the source laboratory (Tracey).) KFKDPNAPKRPPSAFFLFCSEYRPKIKGEHPGLSIGDVAKKLGEMWNNTAADDKQPYEKKAAKLKEKYEKDIAAY : 7.84
